Each item that follows carries a reported IC50.
Tested on: A2780
Experiment: Growth inhibition of human cisplatin-resistant A2780 cells after 72 hrs
Format: functional, cell-based
Settings: A2780, 72 h
Kindly answer with a numeric value in nM, unit omitted.

| smiles-repr | unit-text | IC50 |
| --- | --- | --- |
| COc1cccc(C(=O)O[C@H]2[C@H]([C@]3(OC(C)=O)CO[C@@H]3CCO)/C(C)=C(/O)C(=O)C3=C(C)[C@@H](OC(=O)[C@H](O)[C@H](C=C(C)C)NC(=O)OC(C)(C)C)C[C@]2(O)C3(C)C)c1 | nM | 5.7 |
| CC(=O)O[C@@]1([C@@H]2/C(C)=C(/O)C(=O)C3=C(C)[C@@H](OC(=O)[C@H](O)[C@H](CC(C)C)NC(=O)OC(C)(C)C)C[C@@](O)([C@H]2OC(=O)c2ccccc2)C3(C)C)CO[C@@H]1CCO | nM | 16.8 |
| CC(=O)O[C@@]1([C@@H]2/C(C)=C(/O)C(=O)C3=C(C)[C@@H](OC(=O)[C@H](O)[C@H](CC(C)C)NC(=O)OC(C)(C)C)C[C@@](O)([C@H]2OC(=O)c2cccc(F)c2)C3(C)C)CO[C@@H]1CCO | nM | 11.8 |

--- query ---
Quick check: IC50 on A2780, item `COc1cccc(C(=O)O[C@H]2[C@H]([C@]3(OC(C)=O)CO[C@@H]3CCO)/C(C)=C(/O)C(=O)C3=C(C)[C@@H](OC(=O)[C@H](O)[C@H](CC(C)C)NC(=O)OC(C)(C)C)C[C@]2(O)C3(C)C)c1` ?
4.3
